Measured koff values are reported for all entries that follow.
- system.under.test: T1, human recombinant CD117 (c-Kit) from Sino Biological (Catalog No. 11996-H08H) (human, UniProt P10721 26-524)
- T1 construct: also called soluble antigen
- assay.method.text: BLI Octet, IgG on anti-human Fc sensor, soluble CD117, 1:1 fit
- Procedure: IgG antibodies were immobilized on biosensors using suitable capture surfaces and binding of soluble antigen to immobilized antibodies was monitored by BLI (Octet). The resulting sensorgrams were analyzed using the supplied software (Fortebio). […] In the main experiment kinetic assays were performed by first capturing IgG using anti-human Fc biosensors. […] Dissociation rate constants (Kd) were calculated using the ForteBio Data Analysis software. […]
Numeric only. Scale: s⁻¹

INSERT INTO measurements (binder, quantity_name, unit_text, recorded_result) VALUES
  ('HC3 LC2 (antibody, V domains shown, IgG; also called VH3/VL2) VH: QVQLVQSGAEVRKPGASVKLSCKASGYTFTSYNMHWVRQAPGQGLEWMGVIYSGNGDTSYNQKFKGRVTLTRDTSTSTVYMELSSLRSEDTAVYYCARERDTRFGNWGQGTLVTVSA VL: DIVMTQSPSTLSASVGDRVTITCRASESVDIYGNSFMHWYQQKPGKAPKLLIYLASNLESGVPSRFSGSGSGTEFTLTISSLQPDDFATYYCQQNNEDPYTFGQGTKLEIK', 'koff', 's⁻¹', 0.00178),
  ('HC3 LC3 (antibody, V domains shown, IgG; also called VH3/VL3) VH: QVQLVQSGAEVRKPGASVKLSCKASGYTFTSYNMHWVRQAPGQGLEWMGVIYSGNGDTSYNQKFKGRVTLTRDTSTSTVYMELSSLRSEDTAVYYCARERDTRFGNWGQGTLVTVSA VL: DIVMTQSPSTLSASVGDRVTITCRASESVDIYGSSFMHWYQQKPGQPPKLLIYLASNLESGVPSRFSGSGSGTEFTLTISSLEADDVATYYCQQNNEDPYTFGGGTKLEIK', 'koff', 's⁻¹', 0.00216),
  ('HC5 LC2 (antibody, V domains shown, IgG; also called VH5/VL2) VH: EVQLVQSGAEVKKPGESLKISCKGSGYTFTSYNMHWVRQMPGKGLEWMGVIYSGNADTSYNQKFKGQVTISADKSISTAYLQWSSLKASDTAMYYCARERDTRFGNWGQGTLVTVSA VL: DIVMTQSPSTLSASVGDRVTITCRASESVDIYGNSFMHWYQQKPGKAPKLLIYLASNLESGVPSRFSGSGSGTEFTLTISSLQPDDFATYYCQQNNEDPYTFGQGTKLEIK', 'koff', 's⁻¹', 0.0017),
  ('Signalkuppe (antibody, V domains shown, IgG; also called VH1/VL3; HC1 LC3) VH: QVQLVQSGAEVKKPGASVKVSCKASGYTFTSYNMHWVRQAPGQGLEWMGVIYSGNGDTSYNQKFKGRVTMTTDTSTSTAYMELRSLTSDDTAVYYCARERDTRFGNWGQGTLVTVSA VL: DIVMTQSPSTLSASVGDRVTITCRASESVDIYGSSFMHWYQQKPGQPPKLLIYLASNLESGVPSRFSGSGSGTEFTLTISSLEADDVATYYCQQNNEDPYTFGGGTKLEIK', 'koff', 's⁻¹', 0.000727);

Enquiry: # get_value(readout='koff', item= Zumstein (antibody, V domains shown, IgG; also called VH1/VL2; HC1 LC2) VH: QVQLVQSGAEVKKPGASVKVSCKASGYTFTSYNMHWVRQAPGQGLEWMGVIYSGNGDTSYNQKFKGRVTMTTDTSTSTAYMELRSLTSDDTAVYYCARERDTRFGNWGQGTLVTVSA VL: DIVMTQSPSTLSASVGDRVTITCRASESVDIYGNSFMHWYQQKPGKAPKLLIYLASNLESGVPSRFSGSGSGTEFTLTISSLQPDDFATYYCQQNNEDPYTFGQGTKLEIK )
Return: 0.000668
